Value source: patent US9452986B2

molecular target: recombinant human Nav1.8 (Homo sapiens (Human)); assay: FRET-based membrane potential assay, recombinant human sodium channel Nav1.8; format: cell-based; conditions: HEK293 cells stably expressing recombinant human Nav1.8; veratridine + scorpion venom depolarization
Sequence (Q9Y5Y9 whole entry): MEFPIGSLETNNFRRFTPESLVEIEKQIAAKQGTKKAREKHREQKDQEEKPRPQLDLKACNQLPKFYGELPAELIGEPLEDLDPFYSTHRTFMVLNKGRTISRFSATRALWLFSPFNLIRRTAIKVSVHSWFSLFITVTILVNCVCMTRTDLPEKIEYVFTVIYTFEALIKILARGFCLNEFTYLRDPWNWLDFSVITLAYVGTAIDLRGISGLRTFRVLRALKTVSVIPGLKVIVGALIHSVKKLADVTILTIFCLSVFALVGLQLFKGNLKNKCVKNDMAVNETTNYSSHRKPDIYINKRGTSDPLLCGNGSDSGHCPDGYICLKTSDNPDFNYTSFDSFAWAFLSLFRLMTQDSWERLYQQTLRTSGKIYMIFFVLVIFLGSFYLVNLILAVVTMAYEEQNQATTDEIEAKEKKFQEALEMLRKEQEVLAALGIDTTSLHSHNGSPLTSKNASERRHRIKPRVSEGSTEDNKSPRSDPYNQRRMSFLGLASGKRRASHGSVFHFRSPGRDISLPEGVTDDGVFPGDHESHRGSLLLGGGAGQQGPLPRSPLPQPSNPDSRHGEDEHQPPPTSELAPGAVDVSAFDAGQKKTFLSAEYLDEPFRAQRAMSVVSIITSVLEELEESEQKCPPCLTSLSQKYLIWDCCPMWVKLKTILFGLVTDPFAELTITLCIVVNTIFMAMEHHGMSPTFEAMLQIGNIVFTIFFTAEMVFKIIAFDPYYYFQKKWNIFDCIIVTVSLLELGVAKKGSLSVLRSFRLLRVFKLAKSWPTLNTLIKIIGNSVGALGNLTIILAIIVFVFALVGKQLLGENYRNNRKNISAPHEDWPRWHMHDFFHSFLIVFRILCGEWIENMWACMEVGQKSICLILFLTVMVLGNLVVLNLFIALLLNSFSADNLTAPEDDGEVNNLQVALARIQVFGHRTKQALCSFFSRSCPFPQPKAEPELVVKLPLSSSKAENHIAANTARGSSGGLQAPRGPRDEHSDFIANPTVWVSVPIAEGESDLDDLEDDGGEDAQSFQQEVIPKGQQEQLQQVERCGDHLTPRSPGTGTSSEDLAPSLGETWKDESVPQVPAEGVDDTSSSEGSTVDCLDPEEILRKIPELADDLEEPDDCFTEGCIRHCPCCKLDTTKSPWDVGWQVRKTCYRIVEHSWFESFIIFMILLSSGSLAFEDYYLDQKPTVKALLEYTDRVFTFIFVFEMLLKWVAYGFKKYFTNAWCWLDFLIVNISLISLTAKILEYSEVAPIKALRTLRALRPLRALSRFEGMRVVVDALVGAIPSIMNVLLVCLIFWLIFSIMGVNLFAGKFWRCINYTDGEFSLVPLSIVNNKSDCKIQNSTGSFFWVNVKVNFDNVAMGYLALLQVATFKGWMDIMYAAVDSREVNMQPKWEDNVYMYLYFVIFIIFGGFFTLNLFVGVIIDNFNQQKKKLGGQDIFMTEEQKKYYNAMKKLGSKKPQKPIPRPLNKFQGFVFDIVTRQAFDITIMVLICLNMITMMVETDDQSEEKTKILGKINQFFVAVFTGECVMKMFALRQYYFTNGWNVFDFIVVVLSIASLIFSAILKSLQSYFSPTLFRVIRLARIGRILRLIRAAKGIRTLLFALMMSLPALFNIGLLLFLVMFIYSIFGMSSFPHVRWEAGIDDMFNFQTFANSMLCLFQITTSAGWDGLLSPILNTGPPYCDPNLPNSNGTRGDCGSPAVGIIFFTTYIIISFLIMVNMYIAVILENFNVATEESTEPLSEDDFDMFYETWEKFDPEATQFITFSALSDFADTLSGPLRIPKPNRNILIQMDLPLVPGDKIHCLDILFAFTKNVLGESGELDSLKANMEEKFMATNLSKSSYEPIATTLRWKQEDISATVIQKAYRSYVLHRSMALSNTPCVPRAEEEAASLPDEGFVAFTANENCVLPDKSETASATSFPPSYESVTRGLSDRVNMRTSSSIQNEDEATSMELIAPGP
# key: entry, value: pIC50
# log scale: pIC50 equals minus log10 of the concentration in mol/L

Below, each entry is followed by its recorded pIC50 result.
{"columns": ["compound", "property_measured", "recorded_number"],
 "data": [
  ["O=C(NCC(F)(F)F)c1ccc2cc(Oc3ccc(C(F)F)cn3)ccc2n1", "pIC50", 5.47],
  ["CCN1CCC(N(CC)C(=O)c2ccc3cc(Oc4ccc(C(F)(F)F)cn4)ccc3n2)CC1=O (centres unmarked)", "pIC50", 5.94],
  ["CN1CC(NC(=O)c2ccc3cc(Oc4ccc(C(F)(F)F)cn4)ccc3n2)CC1=O (single isomer, unassigned) [Example 74]", "pIC50", 5.73],
  ["COC[C@H]1CN(C(=O)c2ccc3cc(Oc4ccc(C(F)(F)F)cn4)ccc3n2)CCN1", "pIC50", 5.73],
  ["O=C(c1ccc2cc(Oc3ccc(C(F)(F)F)cn3)ccc2n1)N1CC2(CCOCC2)C1", "pIC50", 5.43]
]}

// recorded pIC50 for `O=C(c1ccc2cc(Oc3ccc(C(F)(F)F)cn3)ccc2n1)N1CC(NCC(F)(F)F)C1` : 5.78
